protocolDetails: Plasma and urine pharmacokinetics in patients
Format: in vivo, human
runParameters: human, plasma; 5 to 160 mg, oral
valueType: Tmax

Q. Which Tmax reading was recorded for the compound Cc1cc2ncnn2cc1Nc1ncc2c(n1)n(C1CCOCC1)c(=O)n2C ?
A. 1 to 2 h

----------
protocolDetails: Plasma and urine pharmacokinetics in patients
Assay type: in vivo, human
runParameters: human, plasma, oral; 80 mg BID cohort, Cycle 0 Day 1 single dose; read-out: geoMean Cmax
valueType: Cmax (nM)
Your answer is read as nM, so omit the unit and give the number.

Q. May I ask what Cmax has been recorded for Cc1cc2ncnn2cc1Nc1ncc2c(n1)n(C1CCOCC1)c(=O)n2C ?
A. 2460

----------
protocolDetails: Plasma and urine pharmacokinetics in patients
Assay type: in vivo, human
runParameters: human, plasma, oral; 80 mg BID cohort, Cycle 0 Day 1 single dose; read-out: geoMean AUCinf
Protocol: Urine PK samples were collected at Cycle 0, Day 1 and at Cycle 1, Day 8 at the following timepoints: pre-dose (Cycle 0, Day 1 only), 0 to 8 h post dose and 8 to 24 h post-dose. […] Maximum observed concentration (Cmax) and time to reach Cmax (tmax) were determined directly by inspection of the concentration-time profiles. Terminal half-life slope (t½λz) was calculated as ln2/terminal elimination rate constant (λz). […]
valueType: AUC(0-inf) (µM·h)
Response body: numeric value in µM·h, unit text excluded.

Q. GET /values?readout=AUC(0-inf)&item= Cc1cc2ncnn2cc1Nc1ncc2c(n1)n(C1CCOCC1)c(=O)n2C
A. 25.2
